As an illustration, consider measured IC50 for molecules on FAK kinase (catalytic construct FAK(410-689)) (Homo sapiens (Human), UniProt Q05397).
Sequence (Q05397 410-689): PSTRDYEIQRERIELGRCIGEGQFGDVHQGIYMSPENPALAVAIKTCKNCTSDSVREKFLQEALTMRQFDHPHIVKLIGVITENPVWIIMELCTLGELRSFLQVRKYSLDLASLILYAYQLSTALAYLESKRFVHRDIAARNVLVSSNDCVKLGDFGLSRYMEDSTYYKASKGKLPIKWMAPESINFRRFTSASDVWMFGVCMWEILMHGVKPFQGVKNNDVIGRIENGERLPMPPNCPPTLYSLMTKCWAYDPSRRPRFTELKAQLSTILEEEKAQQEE
Measurement kind: IC50 (nM)

{"columns": ["Molecule", "Units of measure", "IC50"],
 "data": [
  ["Cc1ccc(CNc2nc(Nc3ccc(C(=O)N(C)C)cc3)ncc2C(F)(F)F)c(N(C)S(C)(=O)=O)n1", "nM", 0.6],
  ["CN(c1nccnc1CNc1nc(Nc2ccc(C3COC(C)(C)O3)cc2)ncc1C(F)(F)F)S(C)(=O)=O (stereo not shown)", "nM", 4.75],
  ["CN(c1ncccc1CNc1nc(Nc2cccc(C(=O)N3CCNC(=O)C3)c2)ncc1C(F)(F)F)S(C)(=O)=O", "nM", 2.88],
  ["CNC(=O)c1cccc(Nc2ncc(C(F)(F)F)c(NCc3cccnc3N(C)S(C)(=O)=O)n2)c1", "nM", 1.61],
  ["CN(c1ncccc1CNc1nc(Nc2cccc(C(=O)N3CC[C@@H](O)C3)c2)ncc1C(F)(F)F)S(C)(=O)=O", "nM", 4.08],
  ["Cc1ccc(CNc2nc(Nc3ccccc3)ncc2C(F)(F)F)c(NS(C)(=O)=O)c1", "nM", 10.3]
]}

P = CN(c1ncccc1CNc1nc(Nc2ccc(C(=O)N3CCCCC3)cc2)ncc1C(F)(F)F)S(C)(=O)=O
Q = CC(=O)NCC(=O)N1CCC(Nc2ncc(C(F)(F)F)c(NCc3cccnc3N(C)S(C)(=O)=O)n2)CC1
R = CN1CCC(NC(=O)c2cccc(Nc3ncc(C(F)(F)F)c(NCc4cccnc4N(C)S(C)(=O)=O)n3)c2)CC1
INPUT: Rank the items in ascending order with respect to IC50. Hello, could you send the labels back in the order asked? Thank you.
OUTPUT: R, P, Q
(R: 0.96 nM, P: 1.79 nM, Q: 188 nM)

I = CN(c1ncccc1CNc1nc(Nc2ccc(OC(F)(F)F)cc2)ncc1C(F)(F)F)S(C)(=O)=O
II = Cc1cc(C(N)=O)ccc1Nc1ncc(C(F)(F)F)c(NCc2ncccc2N(C)S(C)(=O)=O)n1
III = COC(=O)c1ccc(Nc2ncc(C(F)(F)F)c(NCc3cccnc3N(C)S(C)(=O)=O)n2)cc1
IV = CN(c1nccnc1CNc1nc(Nc2cc(C(N)=O)ccc2F)ncc1C(F)(F)F)S(C)(=O)=O
INPUT: Order these by IC50, descending, and give the full ranking. Use the labels to give the ranking in the order requested.
OUTPUT: IV, I, II, III
(IV: 7.49 nM, I: 1.83 nM, II: 0.993 nM, III: 0.59 nM)

1 = CN(c1ncccc1CNc1nc(Nc2ccc(C(=O)NCCCCCO)cc2)ncc1C(F)(F)F)S(C)(=O)=O
2 = Cc1ncc(CNc2nc(Nc3ccc(C(N)=O)cc3)ncc2C(F)(F)F)c(N(C)S(C)(=O)=O)n1
INPUT: Select one: 1 or 2 . Criterion: greater recorded IC50. Return value: the label identifying the chosen record.
OUTPUT: 2

====

Dear all, this message contains pIC50 results, target or system FAK kinase (catalytic construct FAK(410-689)) (Homo sapiens (Human), UniProt Q05397).
pIC50: −log10 of the molar value.
Measurement kind: pIC50

{"columns": ["Compound", "Subject of test", "pIC50"],
 "data": [
  ["CCC(CO)NC(=O)c1cccc(Nc2ncc(C(F)(F)F)c(NCc3cccnc3N(C)S(C)(=O)=O)n2)c1 (stereo not shown) [Compound 203]", "FAK kinase (catalytic construct FAK(410-689)) (Homo sapiens (Human), UniProt Q05397)", 8.95],
  ["CN(c1ncccc1CNc1nc(Nc2ccc(C(=O)N3CCNC(=O)C3)cc2)ncc1C(F)(F)F)S(C)(=O)=O [Compound 254]", "FAK kinase (catalytic construct FAK(410-689)) (Homo sapiens (Human), UniProt Q05397)", 8.88],
  ["CN(c1ncccc1CNc1nc(Nc2ccncc2)ncc1C(F)(F)F)S(C)(=O)=O [Compound 285]", "FAK kinase (catalytic construct FAK(410-689)) (Homo sapiens (Human), UniProt Q05397)", 8.90]
]}
